- target: UniProtKB P08246
- Sequence (P08246 30-267): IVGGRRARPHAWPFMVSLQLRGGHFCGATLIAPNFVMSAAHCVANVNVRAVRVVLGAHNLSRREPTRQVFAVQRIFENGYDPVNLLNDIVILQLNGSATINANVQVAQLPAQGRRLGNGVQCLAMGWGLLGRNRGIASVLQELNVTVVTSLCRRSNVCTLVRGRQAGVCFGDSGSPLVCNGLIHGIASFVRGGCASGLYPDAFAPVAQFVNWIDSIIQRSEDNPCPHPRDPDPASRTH
- protocol-text: Inactivation of human leukocyte elastase: kon measured, Ki* = koff/kon calculated
- Format: biochemical
- condition: Elastase; rate of inactivation kon = kobs/[I]; value is kon x 10^-3; read-out: 10^-3 x kon
attribute-measured: log10 kinact/KI (log10 of the value in M⁻¹ s⁻¹)

- compound: "CN(C)CCSc1nnc(SCN2C(=O)c3ccccc3S2(=O)=O)s1 [Example 33B]"
  attribute-measured: "log10 kinact/KI"
  obs-value: 3.60
- compound: "CC(=O)OCN1C(=O)c2c(Cl)cccc2S1(=O)=O"
  attribute-measured: "log10 kinact/KI"
  obs-value: 3.69
- compound: "O=C1c2ccccc2S(=O)(=O)N1CSc1nnnn1CCO [Example 30AQ]"
  attribute-measured: "log10 kinact/KI"
  obs-value: 2.95
- compound: "O=C(O)Cn1nnnc1SCN1C(=O)c2ccccc2S1(=O)=O"
  attribute-measured: "log10 kinact/KI"
  obs-value: 2.60
- compound: "O=C1c2ccccc2S(=O)(=O)N1CSc1nnc(S)s1 [Example 30AH]"
  attribute-measured: "log10 kinact/KI"
  obs-value: 3.04
- compound: "O=C1c2ccccc2S(=O)(=O)N1CSc1nnc(SCCN2CCOCC2)s1"
  attribute-measured: "log10 kinact/KI"
  obs-value: 3.56
- compound: "O=C1c2ccccc2S(=O)(=O)N1CSc1nnnn1-c1cccnc1 [Example 30Q]"
  attribute-measured: "log10 kinact/KI"
  obs-value: 3.14
- compound: "Cn1nnnc1SCN1C(=O)c2ccccc2S1(=O)=O"
  attribute-measured: "log10 kinact/KI"
  obs-value: 3.00
- compound: "O=C1c2ccccc2S(=O)(=O)N1C[S+]([O-])c1nnnn1-c1ccccc1 (stereo not shown)"
  attribute-measured: "log10 kinact/KI"
  obs-value: 3.85
- compound: "COc1cccc2c1C(=O)N(CCl)S2(=O)=O [Example 22A, 2-chloromethyl-4-methoxysaccharin]"
  attribute-measured: "log10 kinact/KI"
  obs-value: 4.09
- compound: "COC(=O)c1cc(C(=O)OC)cc(-n2nnnc2SCN2C(=O)c3ccccc3S2(=O)=O)c1 [Example 30E]"
  attribute-measured: "log10 kinact/KI"
  obs-value: 3.86
- compound: "O=C1c2ccccc2S(=O)(=O)N1CF"
  attribute-measured: "log10 kinact/KI"
  obs-value: 3.88
- compound: "CCc1cccc2c1C(=O)N(CSc1nnnn1CCN1CCOCC1)S2(=O)=O [Example 30J]"
  attribute-measured: "log10 kinact/KI"
  obs-value: 4.15
- compound: "O=C1c2ccccc2S(=O)(=O)N1/C=C/CSc1nnnn1-c1ccccc1"
  attribute-measured: "log10 kinact/KI"
  obs-value: 4.63
- compound: "O=C(O)CCC(=O)Nc1cccc(-n2nnnc2SCN2C(=O)c3ccccc3S2(=O)=O)c1"
  attribute-measured: "log10 kinact/KI"
  obs-value: 3.56
- compound: "CCCCCCC(=O)Nc1cccc(-n2nnnc2SCN2C(=O)c3ccccc3S2(=O)=O)c1"
  attribute-measured: "log10 kinact/KI"
  obs-value: 3.72
- compound: "O=C1c2c(-c3ccccc3)cccc2S(=O)(=O)N1CSc1nnnn1-c1ccccc1 [Example 30BC]"
  attribute-measured: "log10 kinact/KI"
  obs-value: 3.76
- compound: "CN(C)C(=O)Cn1nnnc1SCN1C(=O)c2ccccc2S1(=O)=O [Example 30AS]"
  attribute-measured: "log10 kinact/KI"
  obs-value: 3.23
- compound: "COC(=O)c1cn(-c2ccccc2)c(SCN2C(=O)c3ccccc3S2(=O)=O)n1 [Example 30AR]"
  attribute-measured: "log10 kinact/KI"
  obs-value: 2.48
- compound: "O=C1c2ccccc2S(=O)(=O)N1CS(=O)(=O)c1c(Cl)cccc1Cl [Example 32A]"
  attribute-measured: "log10 kinact/KI"
  obs-value: 2.78
- compound: "COCCOCCOc1ccc(OC)c2c1S(=O)(=O)N(CSc1nnnn1-c1ccccc1)C2=O [Example 30M]"
  attribute-measured: "log10 kinact/KI"
  obs-value: 3.00
- compound: "CCc1cccc2c1C(=O)N(CSc1nnnn1CC(=O)N(C)C)S2(=O)=O [Example 30AV]"
  attribute-measured: "log10 kinact/KI"
  obs-value: 3.88
